- Tested Target: T1, monovalent hVISTA-ECD (amino acids 32-193 of SEQ ID NO: 1 with a 7xHis tail) (human, UniProt Q9H7M9 33-193)
- T1 construct: analyte of the SPR assays; also called huVISTA-His; human VISTA-ECD
- T1 sequence (Q9H7M9 other isoform, or with tags, fused parts or gaps limits assumed): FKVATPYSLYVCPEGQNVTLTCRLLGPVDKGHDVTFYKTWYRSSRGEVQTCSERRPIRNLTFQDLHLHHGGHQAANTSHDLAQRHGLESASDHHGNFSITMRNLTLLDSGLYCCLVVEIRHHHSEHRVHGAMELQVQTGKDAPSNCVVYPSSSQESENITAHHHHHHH
- Test Description: SPR 37C, Ab on Protein A, hVISTA-ECD 50-5 nM, pH 6.0, average
The entries below come with measured Kd values attached.
Measurement Name: Kd (nM)

[[record]]
binder = "P1-068744 (antibody, human IgG1, kappa, V domains shown, IgG1.3; also called P1-068744-7) VH: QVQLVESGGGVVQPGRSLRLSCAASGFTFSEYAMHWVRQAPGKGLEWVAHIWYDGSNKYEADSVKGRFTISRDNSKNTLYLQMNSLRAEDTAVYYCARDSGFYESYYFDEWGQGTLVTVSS VL: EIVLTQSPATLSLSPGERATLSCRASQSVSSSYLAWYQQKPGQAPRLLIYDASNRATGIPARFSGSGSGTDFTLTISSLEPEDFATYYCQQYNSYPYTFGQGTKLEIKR"
measurement_name = "Kd"
measured_number = 1.3

[[record]]
binder = "P1-068748 (antibody, human IgG1, kappa, V domains shown, IgG1.3; also called P1-068748-6) VH: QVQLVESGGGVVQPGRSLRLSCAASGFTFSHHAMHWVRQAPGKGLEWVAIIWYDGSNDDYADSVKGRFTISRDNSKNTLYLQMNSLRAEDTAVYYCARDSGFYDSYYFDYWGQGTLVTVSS VL: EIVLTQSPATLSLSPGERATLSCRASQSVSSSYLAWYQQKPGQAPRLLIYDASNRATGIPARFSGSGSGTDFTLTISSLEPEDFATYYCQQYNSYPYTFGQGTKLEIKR"
measurement_name = "Kd"
measured_number = 1

[[record]]
binder = "P1-068736 (antibody, human IgG1, kappa, V domains shown, IgG1.3) VH: QVQLVESGGGVVQPGRSLRLSCAASGFTFSEYAMHWVRQAPGKGLEWVAIDWYDGSNKDYADSVKGRFTISRDNSKNTLYLQMNSLRAEDTAVYYCARDSGFYDSYYFDDWGQGTLVTVSS VL: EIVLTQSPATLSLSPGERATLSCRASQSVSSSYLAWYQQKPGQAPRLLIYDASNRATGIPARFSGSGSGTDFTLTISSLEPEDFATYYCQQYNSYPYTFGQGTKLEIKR"
measurement_name = "Kd"
measured_number = 1.1

[[record]]
binder = "P1-068752 (antibody, human IgG1, kappa, V domains shown, IgG1.3) VH: QVQLVESGGGVVQPGRSLRLSCAASGFTFSSYAMHWVRQAPGKGLEWVAEIWYDGSNKDYADSVKGRFTISRDNSKNTLYLQMNSLRAEDTAVYYCARDSGFYDSYYFDEWGQGTLVTVSS VL: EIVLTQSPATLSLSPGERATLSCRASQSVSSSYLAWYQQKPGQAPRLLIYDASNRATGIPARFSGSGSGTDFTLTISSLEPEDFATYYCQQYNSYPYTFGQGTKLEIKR"
measurement_name = "Kd"
measured_number = 5.6

